meta.source: the DeepSol protein solubility set

- Assay comment: soluble on expression in E. coli; label from the status in PepcDB or PDB records

| Sequence input | soluble on expression in E. coli |
| --- | --- |
| MKQVKIMFLMTMFLGIGLLFFSENAEAAITSNEIGTHDGYDYEFWKDSGGSGSMTLNSGGTFSAQWSNVNNILFRKGKKFDETQTHQQIGNMSINYGATYNPNGNSYLTVYGWTVDPLVEFYIVDSWGTWRPPGGTPKGTINVDGGTYQIYETTRYNQPSIKGTATFQQYWSVRTSKRTSGTISVSEHFRAWESLGMNMGNMYEVALTVEGYQSSGSANVYSNTLTIGGQSGGEQATRVEAESMTKGGPYTSNITSPFNGVALYANGDNVSFNHSFTKANSSFSLRGASNNSNMARVDLRIGGQNRGTFYFGDQYPAVYTINNINHGIGNQLVELIVTADDGTWDAYLDYLEIR | soluble |
| MKQPTLAVIMTCHNRRNTTLACLQALYQQKNHFDVYLTDDGSTDGTAEFIKAEYPDVKIFQGDGNLFWVGGMHLAFGEAIKNQYDYYLWLNDDTFLEADALEKLLQVHENLAVEGYGQSIVVGSTQDPITKQATYGGAVKSKKWYSNKFEFLEPTSDVQKCDAMYGNCVLIPHSVTLKVGNIDTAFIHSLGDLDYALRARNLGLEHHHHHH | not soluble |
| MLKTPSDAAVAGCLSLLLEVSGNPKAGNVDREHDFDDLKFEHFLASAAGAFPAFLEVAEKRIIGEGVLRAVKESMRWHRAENVHFGAFLLLVPLISSWDAG | not soluble |
| MDSGDFSPMQSNFSLGFMSFEDIPEDARTTEMIDKIVFEEDKEYDHTQDSFRYGRVTTGVSYNLVTGKIPKTVFEQVKAKDDENDNVEFEMEHLEDKETAHKTQTFDELYESQMPKYFDYQSNFSDVNGIWTLLFDQNHYEKMSTFELQAAICAALNSKHFMMICVGIDAFNAVTGVEMSAKDRVVFRMALTRAVAGEFQPPLVKVAPKQLTGVSPMKRDISEVTSSIDVLFVPVIGVTDEVENNRFLIVVRVKGT | not soluble |
| MSLSDPIKITFSVEGLSHPFLVKQKQLAEETGKRLGAQVNVISANDDVNQQFNDIQTAIAQGTDALMMMPATTQGLDAVLKQAEAAQIPYFFSQKGMLGVEPASQVLAPYSNEGQQLGEWVVEHYKGQEDVKVAIISGIPGDQSSDARVNSFLLPLLRSCNFNVVANQPGNYRRGDSEKAAQNMLAANPDIDLLFGANDEAALGGIAALKSSGRQGVDVVGLDGQTDMFAAIQSGQALATVIHKPTAGIVVEEAVDYLRGKPVPEYRVLDEDLVTKETIETGAQPAEGHHHHHH | soluble |
| MSLNKGSERTFNDLVEFIGEEMDFESGFYNDSYLDRRITARMRRTDTEDYQTYQRLLERDNGEREELLDSLSINVTSFFRNPEAWERLRPVLRELTENNRRVRLWSAPSADGREPYSAAMLALDDPEIDARRVEITATDINADILEEARKGTYATSQTTDIADELEPLDDYTKYIEQDGDTFQVRDQVKEMVTFEQHDLIRGDPKRDFDLVFCRNLLIYIDSEFKVPIFETIRGSLREGGYLMIGMTETLPAECRDSFEAVDKRHRIYRREGHHHHHH | not soluble |
